Test Method Notes: yeast display, Sf9 membrane polyspecificity reagent, FACS + sequencing; frameworks hold sequencing errors
Parameter Measured: polyreactivity (PSR sort gate)

QVQLVESGGGLVQAGGSLRLSCAASGRIFYQYAMGWYRQAPGKEREMVAAISRRGASTYYADSVKGRFTISRDNAKNTVYLQMNSLKPEDTAVYYCAAEPRAYSHQYNYWGQGTQVTVSS	high polyreactivity
QVQLVESGVGLVQAGGSLRLSCAPSGSTFWVNGMGWYRPAPGKERELVASISQSGDNTYYADSVKGRFTISRDNAKNTVYLQMNSLKPEDTAVSYCATRYQYGGFLYYRFDDWGQGTQVTVSS	high polyreactivity
QVQLVESGGGLVQAGGSLRLSCAASGRTFKGYAMGWYRQAPGKERELVAAISYRGGSTYYADSVKGRFTISRDKAKKTFYLQMNSLKPEDTAVYYCAADIQPYVYDGYPVGMDYWGQGTQVTVSS	high polyreactivity
